Target: CaLsb1
Experiment: SPOT peptide array binding signal intensity (averaged, normalized) (arbitrary units (background-subtracted, floor 0; scale differs between SH3 domains)); higher = stronger binding of the SH3 domain to the peptide
Outcome Measure: SPOT peptide array binding signal intensity

Look over these answered cases.
1) ERPKRRAPPPVPKKP | ≤ 0
2) APKREAPKPPANTSP | ≤ 0
3) VRTRRRPPPPPIPST | ≤ 0

API: the following record is the query input.
Problem: # lookup: SPOT peptide array binding signal intensity of RLSRLLLSLPPESFT
Result: 1.5
